Reported Ki values for the following molecules.
- TARGET_OR_TEST_SYSTEM: ml receptors (muscarinic receptor subtypes) (Homo sapiens)
- Sequence (P11229 whole entry): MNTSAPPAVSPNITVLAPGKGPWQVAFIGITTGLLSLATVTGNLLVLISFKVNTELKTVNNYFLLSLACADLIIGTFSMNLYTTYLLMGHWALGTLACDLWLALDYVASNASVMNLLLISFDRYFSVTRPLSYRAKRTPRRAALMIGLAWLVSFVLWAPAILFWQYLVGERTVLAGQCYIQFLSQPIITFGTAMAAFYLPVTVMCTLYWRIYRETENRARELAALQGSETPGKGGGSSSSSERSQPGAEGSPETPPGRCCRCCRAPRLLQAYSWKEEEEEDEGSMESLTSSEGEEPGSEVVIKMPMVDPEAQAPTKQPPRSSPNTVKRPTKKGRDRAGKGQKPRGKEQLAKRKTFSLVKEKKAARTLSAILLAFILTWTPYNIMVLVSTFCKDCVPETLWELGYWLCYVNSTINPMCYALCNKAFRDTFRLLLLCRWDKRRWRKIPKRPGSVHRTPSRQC
- RUN_DESCRIPTION: biochemical
- Format: binding
- CONDITIONS: ml 3H QNB Binding in CHO cells Ki (μM), [3H]QNB 0.23 nM, 37 °C, 1 hour, CHO cells, ml
PARAMETER_MEASURED: Ki (µM)

INSERT INTO assay_data (molecule, parameter_measured, unit_label, reported_value) VALUES
  ('Cn1cnc2c(O[C@H]3CN4CC[C@@H]3C4)nccc21 (relative stereo) [Example 1]', 'Ki', 'µM', 19.3),
  ('Cn1cnc2c(O[C@@H]3CN4CC[C@@H]3C4)ncnc21 (relative stereo) [Example 10]', 'Ki', 'µM', 17.1),
  ('c1ccc(Cn2cnc3c(OC4CN5CCC4CC5)nccc32)cc1 (single isomer, unassigned; (+)) [Example 6]', 'Ki', 'µM', 13.4),
  ('OC1(c2nc3c(Cl)nccc3n2Cc2ccccc2)CN2CCC1CC2 (stereo not shown) [Example 14]', 'Ki', 'µM', 1.65);
